Data provenance: paper PMC11979885

assay: Equilibrium solubility of crystalline RO6897779 in FaSSIF-V1 with and without Soluplus; assay type: physicochemical; details: FaSSIF-V1 with Soluplus 4.00 mg mL^–1, aqueous with cosolvent or surfactant or cyclodextrin, thermodynamic from solid; FaSSIF-V1, Soluplus 4.00 mg mL^–1 (D/P 20%), 48 h, 37 °C; read-out: solubility
quantity-name: solubility at 48 h (µg/mL)
# output: bare number, implied unit µg/mL

QUERY: Quick one: solubility at 48 h of O=C(OCc1ccc(OC(F)(F)F)cc1)N1C[C@@H]2CN(C(=O)c3ccc4[nH]nnc4c3)C[C@H]2C1 [RO6897779] ?
RESULT: 130
